These entries and their values trace back to the supplement of paper PMC10065799.

# key: entry, value: phosphorylation enrichment
Molecular target: Fes (UniProt P07332)
Sequence (P07332 whole entry, looked up): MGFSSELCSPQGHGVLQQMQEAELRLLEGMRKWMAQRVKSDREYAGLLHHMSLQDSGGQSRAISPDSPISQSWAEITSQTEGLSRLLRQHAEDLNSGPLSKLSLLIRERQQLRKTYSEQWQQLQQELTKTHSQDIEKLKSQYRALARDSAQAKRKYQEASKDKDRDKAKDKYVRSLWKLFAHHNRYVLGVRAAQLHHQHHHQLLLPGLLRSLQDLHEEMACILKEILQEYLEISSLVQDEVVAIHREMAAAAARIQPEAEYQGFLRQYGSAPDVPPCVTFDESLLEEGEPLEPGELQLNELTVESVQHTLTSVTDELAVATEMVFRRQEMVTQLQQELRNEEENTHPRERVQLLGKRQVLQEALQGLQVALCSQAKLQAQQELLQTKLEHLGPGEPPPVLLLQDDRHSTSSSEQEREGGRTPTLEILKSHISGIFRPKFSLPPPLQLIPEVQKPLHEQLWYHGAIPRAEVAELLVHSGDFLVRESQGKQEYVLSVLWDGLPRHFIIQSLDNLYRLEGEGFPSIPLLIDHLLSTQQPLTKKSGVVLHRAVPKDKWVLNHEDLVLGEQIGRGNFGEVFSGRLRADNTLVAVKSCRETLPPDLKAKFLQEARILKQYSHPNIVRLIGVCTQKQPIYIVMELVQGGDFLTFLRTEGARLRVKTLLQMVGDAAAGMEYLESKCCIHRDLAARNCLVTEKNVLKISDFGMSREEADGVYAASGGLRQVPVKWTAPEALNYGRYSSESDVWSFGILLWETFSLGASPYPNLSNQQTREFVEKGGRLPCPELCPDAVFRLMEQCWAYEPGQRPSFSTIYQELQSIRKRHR
Test: phosphorylation enrichment, bacterial display (enrichment ratio); higher = better substrate or ligand; peptides without Tyr show the background;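 also: 11-residue human phosphosite peptides and single-mutation variants displayed on the E. coli surface, counted by deep sequencing, each peptide's frequency after selection divided by its frequency in the unselected input library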;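 also: frequency after pTyr selection over input frequency; kinase dosed for 20-30% of maximal phosphorylation in three min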

{"columns": ["sequence_content", "measurement_target", "phosphorylation enrichment"],
 "data": [
  ["GHLYAYDWIRI [BEST1_Y227_S231R]", "Fes (UniProt P07332)", 3.03],
  ["CTNPQYLAAGS [RABL3_Y185_R184Q]", "Fes (UniProt P07332)", 0.849],
  ["PLRAYYLIARV [HLCS_Y635_D634Y]", "Fes (UniProt P07332)", 1.12],
  ["ANAYIYVVQLP [L1CAM_Y420]", "Fes (UniProt P07332)", 1.17],
  ["GGQVFYNSEFG [FLT4_Y1333_YF]", "Fes (UniProt P07332)", 1.11],
  ["PFRQWYESHFA [RPS8_Y113_YF]", "Fes (UniProt P07332)", 1.11],
  ["PELINYHQPNS [BTK_Y361_H364P]", "Fes (UniProt P07332)", 0.908],
  ["ITNLLYHVVSW [GBA_Y412_G416S]", "Fes (UniProt P07332)", 1.35],
  ["VCDALYPPGPP", "Fes (UniProt P07332)", 0.794],
  ["TYAVSYLPDMS [FLNC_Y1602_T1599A]", "Fes (UniProt P07332)", 0.763],
  ["HFEFKYVINAI [MAOA_Y268_C266F_YF]", "Fes (UniProt P07332)", 2.11],
  ["MSSHHCDYKKY [ZNF445_Y428_Y428C]", "Fes (UniProt P07332)", 0.661],
  ["LLAGLYRGQAL [FGFR4_Y390]", "Fes (UniProt P07332)", 0.833],
  ["ADLLVYIKALN [HPRT1_Y81_D80V]", "Fes (UniProt P07332)", 1.48],
  ["LEDPMYDIIRD [RP9_Y142_H137L]", "Fes (UniProt P07332)", 2.32],
  ["SSENPCATIKD [MEGF10_Y1030_Y1030C]", "Fes (UniProt P07332)", 0.823],
  ["CTTIYYNYMCN [TP53_Y234_H233Y]", "Fes (UniProt P07332)", 1.03],
  ["AARVSYWLASG [DCHS1_Y1582_R1583W]", "Fes (UniProt P07332)", 1.17],
  ["VHLYAYDWISI [BEST1_Y227_G222V]", "Fes (UniProt P07332)", 3.05],
  ["VKPENDRRLDI [VHL_Y175_Y175D]", "Fes (UniProt P07332)", 0.789],
  ["PLGVPYLDKPP [JMJD7_Y31_A28G]", "Fes (UniProt P07332)", 1.64],
  ["SHLSAFPALEG [CD5_Y465_Y465F]", "Fes (UniProt P07332)", 0.612],
  ["RLNAIYQNNLT [GSR_Y158]", "Fes (UniProt P07332)", 0.75],
  ["EFQLPYFNMVP [BMPR1A_Y457_YF]", "Fes (UniProt P07332)", 1.01],
  ["GAVGNYSGGLA [MGMT_Y158]", "Fes (UniProt P07332)", 0.765],
  ["IMITDYLPLFR [INSR_Y87_L89P]", "Fes (UniProt P07332)", 0.985],
  ["YISLIYTNYEA [GSTP1_Y109]", "Fes (UniProt P07332)", 1.23],
  ["EPSVDYCVVKI [CAD_Y735]", "Fes (UniProt P07332)", 1.11],
  ["GYIISYREEEQ", "Fes (UniProt P07332)", 2.14],
  ["LLSVAYQNVVG [YWHAG_Y49_K50Q]", "Fes (UniProt P07332)", 1.25],
  ["SFPPTYRFERG [INPPL1_Y661_YF]", "Fes (UniProt P07332)", 0.603],
  ["MCDSHYLESRF [CLK1_Y56_S61F]", "Fes (UniProt P07332)", 0.867],
  ["LEAFQYIGESQ [MSH2_Y856_E853A]", "Fes (UniProt P07332)", 1.58],
  ["KLKEKYQKDIA [HMGB1_Y155_E156Q]", "Fes (UniProt P07332)", 0.996],
  ["AAPAAHDAADT [GAMT_Y27_Y27H]", "Fes (UniProt P07332)", 0.665],
  ["FESPRYLQVRI [FANCA_Y488_H492R]", "Fes (UniProt P07332)", 0.985],
  ["PVGVLYEVKVF [PTS_Y128_K129E_YF]", "Fes (UniProt P07332)", 2.67],
  ["IVTLKYPIEHG [ACTB_Y69_L65V]", "Fes (UniProt P07332)", 0.76],
  ["QQPGPYDRPGA [HNRNPH2_Y210_R206Q]", "Fes (UniProt P07332)", 1.39],
  ["DPLLTYLFPPK [LMNA_Y481_R482L]", "Fes (UniProt P07332)", 1.08],
  ["GPGLVYGVANK [FLNB_Y1833]", "Fes (UniProt P07332)", 0.689],
  ["ESVNTYLQTSP [NAT1_Y208_M205V]", "Fes (UniProt P07332)", 0.887],
  ["ATPSRYMTFLH [DYNC2H1_Y2872]", "Fes (UniProt P07332)", 0.748],
  ["KKLHEYNTQFQ [PIK3R1_Y452]", "Fes (UniProt P07332)", 0.541],
  ["CNTIHYNFMCN [TP53_Y234_T230N_YF]", "Fes (UniProt P07332)", 0.822],
  ["QGIIIYRAAYF [SLC25A4_Y187]", "Fes (UniProt P07332)", 1.91],
  ["VRALTYCDLHK [KCNH2_Y827]", "Fes (UniProt P07332)", 0.874],
  ["KFACSYTPVKA [FLNB_Y708_T703K_YF]", "Fes (UniProt P07332)", 0.895],
  ["NDEDIYKGLPD [VAV3_Y141]", "Fes (UniProt P07332)", 1.21],
  ["EIASHYRHLLR [ZBTB46_Y14_T11A]", "Fes (UniProt P07332)", 0.585],
  ["ILTFKYLQKPM [KIT_Y547_YF]", "Fes (UniProt P07332)", 1.29],
  ["EEHIPCTHMNG [INSR_Y1361_Y1361C]", "Fes (UniProt P07332)", 0.867],
  ["RKKEEYKMALY [F8_Y1990]", "Fes (UniProt P07332)", 0.708],
  ["RMSSSYPTGLA [ADM_Y52]", "Fes (UniProt P07332)", 0.542],
  ["KNNDGYTDYAE [MCFD2_Y135_I136T]", "Fes (UniProt P07332)", 1],
  ["GLRQGYFVEAQ [APCS_Y142]", "Fes (UniProt P07332)", 1.08],
  ["FLQEIYNSNNQ [FGG_Y140_YF]", "Fes (UniProt P07332)", 1.08],
  ["PYAEPYADYGG [APBA1_Y187_S184A]", "Fes (UniProt P07332)", 3.07]
]}
